This collection of values is drawn from ChEMBL document CHEMBL4049435.

# assay-method-text: Half life of the compound at pH 6 under oxidative condition
# Assay type: physicochemical

{"given-smiles": "Cc1ccc([C@@H](C)Oc2cc3onc(CCC(=O)O)c3cc2Cl)nn1", "half-life": "> 41.7 days"}
{"given-smiles": "Cc1ccc([C@@H](C)Oc2cc3onc(CCC(=O)O)c3cc2Cl)nc1", "half-life": "> 41.7 days"}
{"given-smiles": "O=C(O)CCn1c(=O)oc2cc(OCC3CC3)c(Cl)cc21", "half-life": "> 41.7 days"}
{"given-smiles": "C[C@@H](Oc1cc2onc(CCC(=O)O)c2cc1Cl)c1ccc(Cl)cn1", "half-life": "> 41.7 days"}
{"given-smiles": "CCOc1cc2oc(=O)n(CCC(=O)O)c2cc1Cl", "half-life": "> 41.7 days"}
{"given-smiles": "C[C@@H](Oc1cc2oc(=O)n(CCC(=O)O)c2cc1Cl)c1ccccn1", "half-life": "> 41.7 days"}
{"given-smiles": "O=C(O)CCn1c(=O)oc2cc(OC3CC3)c(Cl)cc21", "half-life": "> 41.7 days"}
{"given-smiles": "C[C@@H](Oc1cc2onc(CCC(=O)O)c2cc1Cl)c1ccccn1", "half-life": "> 41.7 days"}
{"given-smiles": "O=C(O)CCn1c(=O)oc2cc(Cl)c(Cl)cc21", "half-life": "13.9 days"}
{"given-smiles": "Cc1cc2oc(=O)n(CCC(=O)O)c2cc1Cl", "half-life": "> 41.7 days"}
